Data origin, for the record: paper PMC5447332

Test: Pharmacokinetics of BEZ235 in plasma, phase Ib combination with everolimus
Format: in vivo, human (patients with advanced solid tumors)
Details: human, plasma, po, Terminal half-life, BEZ235 200 mg/d + everolimus 2.5 mg/d oral; day 1; plasma; mean ± SE
READOUT NAME: half-life
The number alone won't do; follow it with the unit.

[ask] Given the entry Cn1c(=O)n(-c2ccc(C(C)(C)C#N)cc2)c2c3cc(-c4cnc5ccccc5c4)ccc3ncc21 , report its measured half-life.
[reply] 3.2 h

* * *

Assay: Pharmacokinetics of BEZ235 in plasma, phase Ib combination with everolimus
Type: in vivo, human (patients with advanced solid tumors)
Conditions: human, plasma, po, AUC 0-∞, BEZ235 800 mg/d + everolimus 2.5 mg/d oral; day 1; plasma; mean ± SE
READOUT NAME: AUC(0-inf) (ng·h/mL)
// units = ng·h/mL; emit number, no label

[ask] Given the entry Cn1c(=O)n(-c2ccc(C(C)(C)C#N)cc2)c2c3cc(-c4cnc5ccccc5c4)ccc3ncc21 , report its measured AUC(0-inf).
[reply] 2170

* * *

Assay: Pharmacokinetics of BEZ235 in plasma, phase Ib combination with everolimus
Format: in vivo, human (patients with advanced solid tumors)
Settings: human, plasma, po, Cmax, BEZ235 200 mg/d + everolimus 2.5 mg/d oral; day 28; plasma; mean ± SE
READOUT NAME: Cmax (ng/mL)
// units = ng/mL; emit number, no label

[ask] Given the entry Cn1c(=O)n(-c2ccc(C(C)(C)C#N)cc2)c2c3cc(-c4cnc5ccccc5c4)ccc3ncc21 , report its measured Cmax.
[reply] 214

* * *

Assay: Pharmacokinetics of BEZ235 in plasma, phase Ib combination with everolimus
Type: in vivo, human (patients with advanced solid tumors)
Conditions: human, plasma, po, AUC 0-∞, BEZ235 400 mg/d + everolimus 2.5 mg/d oral; day 28; plasma; mean ± SE
READOUT NAME: AUC(0-inf) (ng·h/mL)
// units = ng·h/mL; emit number, no label

[ask] Given the entry Cn1c(=O)n(-c2ccc(C(C)(C)C#N)cc2)c2c3cc(-c4cnc5ccccc5c4)ccc3ncc21 , report its measured AUC(0-inf).
[reply] 2710

* * *

Assay: Pharmacokinetics of BEZ235 in plasma, phase Ib combination with everolimus
Format: in vivo, human (patients with advanced solid tumors)
Conditions: human, plasma, po, AUC 0-∞, BEZ235 800 mg/d + everolimus 2.5 mg/d oral; day 28; plasma; mean ± SE
READOUT NAME: AUC(0-inf) (ng·h/mL)
// units = ng·h/mL; emit number, no label

[ask] Given the entry Cn1c(=O)n(-c2ccc(C(C)(C)C#N)cc2)c2c3cc(-c4cnc5ccccc5c4)ccc3ncc21 , report its measured AUC(0-inf).
[reply] 8880

* * *

Test: Pharmacokinetics of BEZ235 in plasma, phase Ib combination with everolimus
Assay type: in vivo, human (patients with advanced solid tumors)
Conditions: human, plasma, po, Tmax, BEZ235 800 mg/d + everolimus 2.5 mg/d oral; day 28; plasma; mean ± SE
READOUT NAME: Tmax (h)
// units = h; emit number, no label

[ask] Given the entry Cn1c(=O)n(-c2ccc(C(C)(C)C#N)cc2)c2c3cc(-c4cnc5ccccc5c4)ccc3ncc21 [BEZ235, dactolisib] , report its measured Tmax.
[reply] 2

* * *

Test: Pharmacokinetics of BEZ235 in plasma, phase Ib combination with everolimus
Type: in vivo, human (patients with advanced solid tumors)
Settings: human, plasma, oral, Steady-state half-life, range over 200-800 mg/day
READOUT NAME: half-life

[ask] Given the entry Cn1c(=O)n(-c2ccc(C(C)(C)C#N)cc2)c2c3cc(-c4cnc5ccccc5c4)ccc3ncc21 [BEZ235, dactolisib] , report its measured half-life.
[reply] 15 to 43 h

* * *

Experiment: Pharmacokinetics of BEZ235 in plasma, phase Ib combination with everolimus
Type: in vivo, human (patients with advanced solid tumors)
Details: human, plasma, po, AUC 0-24, BEZ235 800 mg/d + everolimus 2.5 mg/d oral; day 1; plasma; mean ± SE
READOUT NAME: AUC(0-t) (ng·h/mL)
// units = ng·h/mL; emit number, no label

[ask] Given the entry Cn1c(=O)n(-c2ccc(C(C)(C)C#N)cc2)c2c3cc(-c4cnc5ccccc5c4)ccc3ncc21 [BEZ235, dactolisib] , report its measured AUC(0-t).
[reply] 2080

* * *

Experiment: Pharmacokinetics of BEZ235 in plasma, phase Ib combination with everolimus
Type: in vivo, human (patients with advanced solid tumors)
Conditions: human, plasma, po, Terminal half-life, BEZ235 200 mg/d + everolimus 2.5 mg/d oral; day 28 (steady state); plasma; mean ± SE
READOUT NAME: half-life (h)
// units = h; emit number, no label

[ask] Given the entry Cn1c(=O)n(-c2ccc(C(C)(C)C#N)cc2)c2c3cc(-c4cnc5ccccc5c4)ccc3ncc21 , report its measured half-life.
[reply] 19.2

* * *

Test: Pharmacokinetics of BEZ235 in plasma, phase Ib combination with everolimus
Format: in vivo, human (patients with advanced solid tumors)
Settings: human, plasma, po, AUC 0-24, BEZ235 800 mg/d + everolimus 2.5 mg/d oral; day 28; plasma; mean ± SE
READOUT NAME: AUC(0-t) (µg·h/mL)
// units = µg·h/mL; emit number, no label

[ask] Given the entry Cn1c(=O)n(-c2ccc(C(C)(C)C#N)cc2)c2c3cc(-c4cnc5ccccc5c4)ccc3ncc21 , report its measured AUC(0-t).
[reply] 7.8

* * *

Test: Pharmacokinetics of BEZ235 in plasma, phase Ib combination with everolimus
Assay type: in vivo, human (patients with advanced solid tumors)
Settings: human, plasma, po, Tmax, BEZ235 200 mg/d + everolimus 2.5 mg/d oral; day 28; plasma; mean ± SE
READOUT NAME: Tmax (h)
// units = h; emit number, no label

[ask] Given the entry Cn1c(=O)n(-c2ccc(C(C)(C)C#N)cc2)c2c3cc(-c4cnc5ccccc5c4)ccc3ncc21 , report its measured Tmax.
[reply] 2.7

* * *

Assay: Pharmacokinetics of BEZ235 in plasma, phase Ib combination with everolimus
Assay type: in vivo, human (patients with advanced solid tumors)
Settings: human, plasma, po, AUC 0-24, BEZ235 200 mg/d + everolimus 2.5 mg/d oral; day 28; plasma; mean ± SE
READOUT NAME: AUC(0-t) (ng·h/mL)
// units = ng·h/mL; emit number, no label

[ask] Given the entry Cn1c(=O)n(-c2ccc(C(C)(C)C#N)cc2)c2c3cc(-c4cnc5ccccc5c4)ccc3ncc21 [BEZ235, dactolisib] , report its measured AUC(0-t).
[reply] 1470

* * *

Test: Pharmacokinetics of BEZ235 in plasma, phase Ib combination with everolimus
Format: in vivo, human (patients with advanced solid tumors)
Conditions: human, plasma, po, Tmax, BEZ235 400 mg/d + everolimus 2.5 mg/d oral; day 1; plasma; mean ± SE
READOUT NAME: Tmax (h)
// units = h; emit number, no label

[ask] Given the entry Cn1c(=O)n(-c2ccc(C(C)(C)C#N)cc2)c2c3cc(-c4cnc5ccccc5c4)ccc3ncc21 , report its measured Tmax.
[reply] 2.5

* * *

Assay: Pharmacokinetics of BEZ235 in plasma, phase Ib combination with everolimus
Format: in vivo, human (patients with advanced solid tumors)
Conditions: human, plasma, po, AUC 0-∞, BEZ235 400 mg/d + everolimus 2.5 mg/d oral; day 1; plasma; mean ± SE
READOUT NAME: AUC(0-inf)

[ask] Given the entry Cn1c(=O)n(-c2ccc(C(C)(C)C#N)cc2)c2c3cc(-c4cnc5ccccc5c4)ccc3ncc21 , report its measured AUC(0-inf).
[reply] 831 ng·h/mL

* * *

Assay: Pharmacokinetics of BEZ235 in plasma, phase Ib combination with everolimus
Assay type: in vivo, human (patients with advanced solid tumors)
Details: human, plasma, po, Terminal half-life, BEZ235 800 mg/d + everolimus 2.5 mg/d oral; day 28 (steady state); plasma; mean ± SE
READOUT NAME: half-life (h)
// units = h; emit number, no label

[ask] Given the entry Cn1c(=O)n(-c2ccc(C(C)(C)C#N)cc2)c2c3cc(-c4cnc5ccccc5c4)ccc3ncc21 , report its measured half-life.
[reply] 15

* * *

Experiment: Pharmacokinetics of BEZ235 in plasma, phase Ib combination with everolimus
Assay type: in vivo, human (patients with advanced solid tumors)
Settings: human, plasma, po, Cmax, BEZ235 400 mg/d + everolimus 2.5 mg/d oral; day 28; plasma; mean ± SE
READOUT NAME: Cmax (ng/mL)
// units = ng/mL; emit number, no label

[ask] Given the entry Cn1c(=O)n(-c2ccc(C(C)(C)C#N)cc2)c2c3cc(-c4cnc5ccccc5c4)ccc3ncc21 , report its measured Cmax.
[reply] 227

* * *

Test: Pharmacokinetics of BEZ235 in plasma, phase Ib combination with everolimus
Assay type: in vivo, human (patients with advanced solid tumors)
Conditions: human, plasma, po, Terminal half-life, BEZ235 800 mg/d + everolimus 2.5 mg/d oral; day 1; plasma; mean ± SE
READOUT NAME: half-life (h)
// units = h; emit number, no label

[ask] Given the entry Cn1c(=O)n(-c2ccc(C(C)(C)C#N)cc2)c2c3cc(-c4cnc5ccccc5c4)ccc3ncc21 , report its measured half-life.
[reply] 5.9
